All figures here come from patent US9976134B2.

Conditions used: TIDE 2X 0.78 g/l, 6 gpg, pH 8.2, 30 min at 20°C, A405; variant vs wild-type thermolysin at same protein concentration
Catalogue of PI (performance index), stain removal values
Property name: PI (performance index), stain removal

Molecule	Measured result
T278M: single-substitution thermolysin variant (SEQ ID NO:3 numbering) (protein, listed as Geobacillus caldoproteolyticus) ITGTSTVGVGRGVLGDQKNINTTYSTYYYLQDNTRGNGIFTYDAKYRTTLPGSLWADADNQFFASYDAPAVDAHYYAGVTYDYYKNVHNRLSYDGNNAAIRSSVHYSQGYNNAFWNGSQMVYGDGDGQTFIPLSGGIDVVAHELTHAVTDYTAGLIYQNESGAINEAISDIFGTLVEFYANKNPDWEIGEDVYTPGISGDSLRSMSDPAKYGDPDHYSKRYTGTQDNGGVHINSGIINKAAYLISQGGTHYGVSVVGIGRDKLGKIFYRALTQYLTPMSNFSQLRAAAVQSATDLYGSTSQEVASVKQAFDAVGVK	1.02
Y151V: single-substitution thermolysin variant (SEQ ID NO:3 numbering) (protein, listed as Geobacillus caldoproteolyticus) ITGTSTVGVGRGVLGDQKNINTTYSTYYYLQDNTRGNGIFTYDAKYRTTLPGSLWADADNQFFASYDAPAVDAHYYAGVTYDYYKNVHNRLSYDGNNAAIRSSVHYSQGYNNAFWNGSQMVYGDGDGQTFIPLSGGIDVVAHELTHAVTDVTAGLIYQNESGAINEAISDIFGTLVEFYANKNPDWEIGEDVYTPGISGDSLRSMSDPAKYGDPDHYSKRYTGTQDNGGVHINSGIINKAAYLISQGGTHYGVSVVGIGRDKLGKIFYRALTQYLTPTSNFSQLRAAAVQSATDLYGSTSQEVASVKQAFDAVGVK	1.25
T049I: single-substitution thermolysin variant (SEQ ID NO:3 numbering) (protein, listed as Geobacillus caldoproteolyticus) ITGTSTVGVGRGVLGDQKNINTTYSTYYYLQDNTRGNGIFTYDAKYRTILPGSLWADADNQFFASYDAPAVDAHYYAGVTYDYYKNVHNRLSYDGNNAAIRSSVHYSQGYNNAFWNGSQMVYGDGDGQTFIPLSGGIDVVAHELTHAVTDYTAGLIYQNESGAINEAISDIFGTLVEFYANKNPDWEIGEDVYTPGISGDSLRSMSDPAKYGDPDHYSKRYTGTQDNGGVHINSGIINKAAYLISQGGTHYGVSVVGIGRDKLGKIFYRALTQYLTPTSNFSQLRAAAVQSATDLYGSTSQEVASVKQAFDAVGVK	1.24
Q128V: single-substitution thermolysin variant (SEQ ID NO:3 numbering) (protein, listed as Geobacillus caldoproteolyticus) ITGTSTVGVGRGVLGDQKNINTTYSTYYYLQDNTRGNGIFTYDAKYRTTLPGSLWADADNQFFASYDAPAVDAHYYAGVTYDYYKNVHNRLSYDGNNAAIRSSVHYSQGYNNAFWNGSQMVYGDGDGVTFIPLSGGIDVVAHELTHAVTDYTAGLIYQNESGAINEAISDIFGTLVEFYANKNPDWEIGEDVYTPGISGDSLRSMSDPAKYGDPDHYSKRYTGTQDNGGVHINSGIINKAAYLISQGGTHYGVSVVGIGRDKLGKIFYRALTQYLTPTSNFSQLRAAAVQSATDLYGSTSQEVASVKQAFDAVGVK	1.07
